src = patent US20100135997A1

Below is a list of entries, each paired with its recorded pKd value.
- measurement target: T1, HLA-A*0201 loaded with the Carcinoembryonic antigen (CEA)-derived … peptide (biotin on the C-terminal biotinylation tag)
- T1 construct: Soluble, biotinylated, immobilised on a streptavidin chip
- test name: Biacore SPR
pKd: −log10 of the molar value.
recorded metric: pKd

{"binder": "SEQ ID NO 8 (receptor, mutated soluble two domain ILT-2) MAGHLPKPTLWAEPGSVITMDQPVTLRCQGGQETQEYRLYREKKTAPWITRIPQELVKKGQFPIPSITWEHAGRYRCYYGSDTSQWSASSDPLELVVTGVYIKPTLSAQPSPVVNSGGNVTLQCDSQVAFDGFILCKEGEDEHPQCLNSQPHARGSSRAIFSVGPVSPSRRWWYRCYAYVAWAPYEWSLPSDLLELDVDG", "result": "≥ 6.00"}
{"binder": "SEQ ID NO 65 (receptor, mutated soluble two domain ILT-2) MGHLPKPTLWAEPGSVITMDQPVTLRCQGGQETQEYRLYREKKTAPWITRIPQELVKKGQFPIPSITWEHAGRYRCYYGSDTSQWSASSDPLELVVTGVYIKPTLSAQPSPVVNSGGNVTLQCDSQVAFDGFILCKEGEDEHPQCLNSQPHARGSSRAIFSVGPVSPSRRWWYRCYAYDSNSPYEWSLPSDLLELLVL", "result": "≥ 6.00"}
{"binder": "SEQ ID NO 119 (receptor, mutated soluble two domain ILT-2) MHLPKPTLWAEPGSVITMDQPVTLRCQGGQETQEYRLYREKKTAPWITRIPQELVKKGQFPIPSITWEHAGRYRCMQYTLTAGRSESSDPLELVVTGVYIKPTLSAQPSPVVNSGGNVTLQCDSQVAFDGFILCKEGEDEHPQCLNSQPHARGSSRAIFSVGPVSPSRRWWYRCYAYDSNSPYEWSLPSDLLELDVDG", "result": "≥ 6.00"}
